# target under test: simulated gastric fluid (pepsin) (Sus scrofa)
# Construct: from tissue; host or cells: porcine stomach mucosa
# Sequence (P00791 60-385): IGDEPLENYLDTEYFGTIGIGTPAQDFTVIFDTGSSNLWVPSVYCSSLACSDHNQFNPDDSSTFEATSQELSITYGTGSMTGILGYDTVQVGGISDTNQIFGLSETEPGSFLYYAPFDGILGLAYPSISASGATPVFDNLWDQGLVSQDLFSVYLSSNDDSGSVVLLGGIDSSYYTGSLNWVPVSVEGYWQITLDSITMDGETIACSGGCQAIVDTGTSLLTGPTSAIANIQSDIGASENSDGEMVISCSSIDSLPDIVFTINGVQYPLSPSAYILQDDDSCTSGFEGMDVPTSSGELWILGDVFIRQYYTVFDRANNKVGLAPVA
# protocol: In vitro stability in simulated gastric fluid (Example 9)
# Format: in vitro ADME, porcine
# test conditions: 37° C., 2 μM
measured quantity: Percent remaining insulin analog, Gastric fluid (30 minutes) (%)
# unit: % | format: bare number

Consider the reported Percent remaining insulin analog, Gastric fluid (30 minutes) for these compounds:
O=C(O)CCCCCCCCCCCCCCOc1ccc(S(=O)(=O)Nc2ccc(C(=O)NCCOCCOCC(=O)NCCOCCOCC(=O)O)cn2)cc1 :: 30
O=C(O)CCCCCCCCCCCc1cc(Oc2ccc(S(=O)(=O)Nc3ccc(C(=O)NCCOCCOCC(=O)NCCOCCOCC(=O)O)cn3)cc2)ccc1F :: 52

Consider the additional compound presented here.
[ask] Looking for the measured Percent remaining insulin analog, Gastric fluid (30 minutes) of `O=C(O)CCCCCCCCCCCCCc1ccc(CCOc2ccc(S(=O)(=O)Nc3ncc(C(=O)NCCOCCOCC(=O)NCCOCCOCC(=O)O)cn3)cc2)cc1` , can you help?
[reply] 44

---

Each entry below carries its recorded NRT [min] (net retention time on columns with immobilized human serum albumin).
# target under test: immobilized human serum albumin (Homo sapiens)
# Construct: purchased Chiralpak (Chiraltech) 34712
# Sequence (P02768 25-609): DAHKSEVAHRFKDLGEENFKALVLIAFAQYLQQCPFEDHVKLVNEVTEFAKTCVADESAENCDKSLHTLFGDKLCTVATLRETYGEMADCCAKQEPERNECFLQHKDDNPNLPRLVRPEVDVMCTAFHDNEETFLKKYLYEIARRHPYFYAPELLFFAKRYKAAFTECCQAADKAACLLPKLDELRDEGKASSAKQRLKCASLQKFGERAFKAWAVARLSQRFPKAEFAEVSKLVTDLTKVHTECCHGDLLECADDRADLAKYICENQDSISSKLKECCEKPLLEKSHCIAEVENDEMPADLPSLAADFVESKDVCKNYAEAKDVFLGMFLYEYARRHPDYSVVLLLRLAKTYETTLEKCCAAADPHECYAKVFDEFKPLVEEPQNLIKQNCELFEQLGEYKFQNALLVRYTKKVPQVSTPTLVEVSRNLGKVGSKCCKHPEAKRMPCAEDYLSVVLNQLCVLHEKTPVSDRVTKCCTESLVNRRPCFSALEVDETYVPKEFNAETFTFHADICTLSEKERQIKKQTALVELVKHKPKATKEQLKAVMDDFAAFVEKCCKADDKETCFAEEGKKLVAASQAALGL
# protocol: Albumin binding: affinity chromatography on columns with immobilized human serum albumin (net retention time)
# test conditions: isolated binders; HSA column 25° C., PBS pH 7.4/isopropanol gradient
# unit: min | format: bare number

O=C(O)CCCCCCCCCCCCCCCCCc1cccc(S(=O)(=O)Nc2ncc(C(=O)NCCOCCOCC(=O)NCCOCCOCC(=O)O)cn2)c1 [Binder 55] :: 15.01
O=C(O)CCCCCCCCCCCCCc1ccc(S(=O)(=O)Nc2ccc(C(=O)NCCOCCOCC(=O)NCCOCCOCC(=O)O)cn2)cc1 [Binder 20] :: 14.8
O=C(O)CCCCCCCCCCCCCc1cccc(S(=O)(=O)Nc2ncc(C(=O)NCCOCCOCC(=O)NCCOCCOCC(=O)O)cn2)c1 [Binder 29] :: 15.66
O=C(O)CCCCCCCc1cc(Oc2ccc(S(=O)(=O)Nc3ncc(C(=O)NCCOCCOCC(=O)NCCOCCOCC(=O)O)cn3)cc2)ccc1F [Binder 63] :: 13.42
O=C(O)CCCCCCCCCCCc1cc(Oc2ccc(S(=O)(=O)Nc3ccc(C(=O)NCCOCCOCC(=O)NCCOCCOCC(=O)O)cn3)cc2)ccc1F [Binder 24] :: 15.76
O=C(O)CCCCCCCCCCCCCCCCCOc1ccc(S(=O)(=O)Nc2ncc(C(=O)NCCOCCOCC(=O)NCCOCCOCC(=O)O)cn2)cc1 [Binder 69] :: 14.24
O=C(O)CCCCCCCCCCCc1ccc(S(=O)(=O)Nc2ncc(C(=O)NCCOCCOCC(=O)NCCOCCOCC(=O)O)cn2)cc1 [Binder 53] :: 12.29
O=C(O)CCCCCCCCCCCCCc1ccc(S(=O)(=O)Nc2ccc(C(=O)NCCOCCOCC(=O)NCCOCCOCC(=O)O)cn2)cc1 [Binder 30] :: 14.36
O=C(O)CCCCCCCCCCCOc1ccc(S(=O)(=O)Nc2ccc(C(=O)NCCOCCOCC(=O)NCCOCCOCC(=O)O)cn2)cc1 [Binder 18] :: 12.37
O=C(O)CCCCCCCCCCCc1cc(Oc2ccc(S(=O)(=O)Nc3ncc(C(=O)NCCOCCOCC(=O)NCCOCCOCC(=O)O)cn3)cc2)ccc1F [Binder 28] :: 15.39

[ask] Field: NRT [min] (net retention time on columns with immobilized human serum albumin) (immobilized human serum albumin (Homo sapiens)). Entry: O=C(O)CCCCCCCCCCCCCCCCCc1cccc(S(=O)(=O)Nc2ncc(C(=O)NCCOCCOCC(=O)NCCOCCOCC(=O)O)cn2)c1 [Binder 41]
[reply] 14.98

[ask] Field: NRT [min] (net retention time on columns with immobilized human serum albumin) (immobilized human serum albumin (Homo sapiens)). Entry: O=C(O)CCCCCCCCCCCCCCOc1ccc(S(=O)(=O)Nc2ccc(C(=O)NCCOCCOCC(=O)NCCOCCOCC(=O)O)cn2)cc1 [Binder 7]
[reply] 14.65

[ask] Field: NRT [min] (net retention time on columns with immobilized human serum albumin) (immobilized human serum albumin (Homo sapiens)). Entry: O=C(O)CCCCCCCCCCCCCCCOc1ccc(S(=O)(=O)Nc2ccc(C(=O)NCCOCCOCC(=O)NCCOCCOCC(=O)O)cn2)cc1Cl [Binder 51]
[reply] 13.59

[ask] Field: NRT [min] (net retention time on columns with immobilized human serum albumin) (immobilized human serum albumin (Homo sapiens)). Entry: O=C(O)CCCCCCCCCc1ccc(OCc2ccc(S(=O)(=O)Nc3ccc(C(=O)NCCOCCOCC(=O)NCCOCCOCC(=O)O)cc3)cc2)cc1 [Binder 2]
[reply] 17.88

[ask] Field: NRT [min] (net retention time on columns with immobilized human serum albumin) (immobilized human serum albumin (Homo sapiens)). Entry: O=C(O)CCCCCCCCCCCCCc1cccc(S(=O)(=O)Nc2ccc(C(=O)NCCOCCOCC(=O)NCCOCCOCC(=O)O)cn2)c1 [Binder 21]
[reply] 16.26
